assay-info: Tmax in Wistar rat at 100 mg/kg, po
Type: ADME, organism-based
Design: dose 100 mg/kg, route oral
experimental-context: in vivo
Parameter Tmax: see the listing below.

Answered examples (5):
- smiles-repr: "COc1ccc(-c2cc(C(F)(F)F)nn2-c2ccc(S(N)(=O)=O)c(CO)c2)cc1C"
  observed-value: "3.5 h"
- smiles-repr: "COc1ccc(-c2cc(C(F)F)nn2-c2ccc(S(N)(=O)=O)c(CO)c2)cc1C"
  observed-value: "2.25 h"
- smiles-repr: "NS(=O)(=O)c1ccc(-n2nc(C(F)F)cc2-c2ccc(Br)cc2)cc1CO"
  observed-value: "2.67 h"
- smiles-repr: "CCC(=O)[N-]S(=O)(=O)c1ccc(-n2nc(C(F)F)cc2-c2ccc(Br)cc2)cc1CO.[Na+]"
  observed-value: "2.85 h"
- smiles-repr: "CCC(=O)[N-]S(=O)(=O)c1ccc(-n2nc(C(F)F)cc2-c2ccc(OC)c(C)c2)cc1CO.[Na+]"
  observed-value: "2.82 h"

Note: attention shifts to another entry.
Entry CCC(=O)[N-]S(=O)(=O)c1ccc(-n2nc(C(F)(F)F)cc2-c2ccc(OC)c(C)c2)cc1CO.[Na+] ; Tmax = 3.78 h

----------
assay-info: Cmax in Wistar rat at 100 mg/kg, po
Assay type: ADME, organism-based
Set-up: dose 100 mg/kg, route oral
experimental-context: in vivo
A collection of molecules and their measured log10 Cmax
Each number you see is log10 of Cmax, and the unit inside the log is ng/mL.

Reference set, count: 2
- smiles-repr: "COc1ccc(-c2cc(C(F)F)nn2-c2ccc(S(N)(=O)=O)c(CO)c2)cc1C"
  attribute-measured: "log10 Cmax"
  observed-value: 2.85
- smiles-repr: "CCC(=O)[N-]S(=O)(=O)c1ccc(-n2nc(C(F)F)cc2-c2ccc(Br)cc2)cc1CO.[Na+]"
  attribute-measured: "log10 Cmax"
  observed-value: 4.45

get_value(item= CCC(=O)[N-]S(=O)(=O)c1ccc(-n2nc(C(F)F)cc2-c2ccc(OC)c(C)c2)cc1CO.[Na+] , readout=log10 Cmax) returns 3.88

The molecule identified as CCC(=O)[N-]S(=O)(=O)c1ccc(-n2nc(C(F)(F)F)cc2-c2ccc(OC)c(C)c2)cc1CO.[Na+] registered its log10 Cmax at 3.97

log10 Cmax recorded for this molecule, COc1ccc(-c2cc(C(F)(F)F)nn2-c2ccc(S(N)(=O)=O)c(CO)c2)cc1C , is 3.80

log10 Cmax recorded for this molecule, NS(=O)(=O)c1ccc(-n2nc(C(F)F)cc2-c2ccc(Br)cc2)cc1CO , is 4.32

----------
assay-info: Terminal half life in Wistar rat at 100 mg/kg, po
Format: ADME, organism-based
Set-up: dose 100 mg/kg, route oral
experimental-context: in vivo
attribute-measured: half-life (h)
Field: numeric (h). Do not append units.

Look over these answered cases.
- smiles-repr: "NS(=O)(=O)c1ccc(-n2nc(C(F)F)cc2-c2ccc(Br)cc2)cc1CO"
  observed-value: 7.51
- smiles-repr: "CCC(=O)[N-]S(=O)(=O)c1ccc(-n2nc(C(F)F)cc2-c2ccc(Br)cc2)cc1CO.[Na+]"
  observed-value: 7.42
- smiles-repr: "CCC(=O)[N-]S(=O)(=O)c1ccc(-n2nc(C(F)(F)F)cc2-c2ccc(OC)c(C)c2)cc1CO.[Na+]"
  observed-value: 6.82

Recorded result, COc1ccc(-c2cc(C(F)(F)F)nn2-c2ccc(S(N)(=O)=O)c(CO)c2)cc1C , half-life: 6.63

Reported half-life of CCC(=O)[N-]S(=O)(=O)c1ccc(-n2nc(C(F)F)cc2-c2ccc(OC)c(C)c2)cc1CO.[Na+] : 5.92
